Assayed target: Prothrombin (Homo sapiens)
Protocol details: Inhibition of human thrombin using Boc-VPR-AMC as substrate at 25 uM preincubated for 15 mins before substrate addition measured up to 10 mins by spectrofluorimetry
The source made the active and inactive calls. No cut-off for these calls is given here.

Molecule: C/C(=C(\C#N)C(N)=O)c1ccccc1
inhibition: 9.7%
//
Molecule: N#C/C(=C\c1cccnc1)C(N)=O
inhibition: inactive
//
Molecule: CC(C)c1ccc(/C=C(\C#N)C(=O)NCC2CCCO2)cc1 (configuration not stated)
inhibition: 14.4%
//
Molecule: N#C/C(=C\c1cccc(N2CCOCC2)c1)C(=O)NC1CC1
inhibition: 9.7%
//
Molecule: Cc1ccc(/C=C(\C#N)C(N)=O)cc1
inhibition: inactive
//
Molecule: N#C/C(=C\c1ccc(CO)cc1)C(N)=O
inhibition: 8.7%
//
Molecule: CN(C)c1ccc(/C=C(\C#N)C(=O)O)cc1
inhibition: 13.3%
